- measurement_target: T1, human SIRPβ stably expressed on CHOK1 cells (human, UniProt O00241 30-398)
- T1 construct: whole, on cells; also called CHOK1-human SIRPB; CHOK1-hSIRPβ
- T1 sequence (O00241 30-398): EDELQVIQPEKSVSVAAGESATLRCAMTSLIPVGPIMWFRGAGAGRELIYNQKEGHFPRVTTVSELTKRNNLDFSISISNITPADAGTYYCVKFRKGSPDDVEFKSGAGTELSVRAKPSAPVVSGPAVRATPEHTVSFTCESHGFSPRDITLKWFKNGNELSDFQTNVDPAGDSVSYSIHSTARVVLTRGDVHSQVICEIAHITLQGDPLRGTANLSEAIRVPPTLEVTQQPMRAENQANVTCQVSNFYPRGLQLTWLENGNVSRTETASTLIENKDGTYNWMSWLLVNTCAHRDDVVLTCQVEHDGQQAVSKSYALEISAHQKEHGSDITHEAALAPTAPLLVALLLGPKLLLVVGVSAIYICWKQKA
- experimental_protocol: FACS, CHOK1-hSIRPβ cells (columns c6 and c7 read as swapped)
- Excerpt: All the humanized antibodies as tested were confirmed to retain the similar activity as the parental antibody of 025c to bind to SIRP family members.
measured_endpoint: TOP MFI (MFI)
# unit: MFI | format: bare number

Reference set (5 entries):
hu025.060 (antibody, V domains shown, Humanized 025; also called hu025.60) VH: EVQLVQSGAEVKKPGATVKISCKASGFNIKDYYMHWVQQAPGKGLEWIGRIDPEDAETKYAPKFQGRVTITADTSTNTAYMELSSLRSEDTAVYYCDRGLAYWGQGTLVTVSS VL: EIVLTQSPATLSLSPGERATLSCSASSSVSSSYLYWYQQKPGQAPKLWIYSTSNLASGIPARFSGSGSGTDFTLTISSLEPEDFAVYYCHQWSSYPYTFGQGTKLEIK; 71200
hu025.021 (antibody, V domains shown, Humanized 025; also called hu025.21) VH: EVQLVQSGAEVKKPGATVKISCKVSGFNIKDYYMHWVQQAPGKGLEWIGRIDPEDAETKYAPKFQGRVTITADTSTNTAYMELSSLRSEDTAVYYCDRGLAYWGQGTLVTVSS VL: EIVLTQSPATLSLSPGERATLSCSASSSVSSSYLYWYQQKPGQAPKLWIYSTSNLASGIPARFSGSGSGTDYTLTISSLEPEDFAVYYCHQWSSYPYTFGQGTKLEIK; 72000
hu025.033 (antibody, V domains shown, Humanized 025) VH: EVQLVQSGAEVKKPGATVKISCKVSGFNIKDYYMHWVQQAPGKGLEWIGRIDPEDAETKYAPKFQGRVTITADTSTDTAYMELSSLRSEDTAVYYCDRGLAYWGQGTLVTVSS VL: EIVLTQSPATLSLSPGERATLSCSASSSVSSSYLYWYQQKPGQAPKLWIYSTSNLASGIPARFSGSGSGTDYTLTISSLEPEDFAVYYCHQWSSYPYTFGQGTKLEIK; 69700
hu025.023 (antibody, V domains shown, Humanized 025; also called hu025.23) VH: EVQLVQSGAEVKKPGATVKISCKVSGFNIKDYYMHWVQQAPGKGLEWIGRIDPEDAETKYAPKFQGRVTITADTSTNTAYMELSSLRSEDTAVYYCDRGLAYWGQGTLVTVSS VL: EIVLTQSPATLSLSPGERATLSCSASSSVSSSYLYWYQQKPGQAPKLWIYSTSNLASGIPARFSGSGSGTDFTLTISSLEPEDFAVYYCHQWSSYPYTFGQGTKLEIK; 72800
025c (antibody, V domains shown, also called chimeric antibody 025c; parental antibody of 025c) VH: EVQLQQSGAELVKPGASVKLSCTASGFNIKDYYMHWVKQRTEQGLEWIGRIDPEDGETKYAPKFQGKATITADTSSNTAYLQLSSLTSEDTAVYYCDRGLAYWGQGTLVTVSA VL: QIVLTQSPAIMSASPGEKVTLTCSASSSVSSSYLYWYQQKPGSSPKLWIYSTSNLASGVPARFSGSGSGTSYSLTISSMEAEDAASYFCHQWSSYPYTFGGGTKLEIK; 72300

Now for a further binder.
[ask] Any idea what TOP MFI was measured for hu025.059 (antibody, V domains shown, Humanized 025; also called hu025.59) VH: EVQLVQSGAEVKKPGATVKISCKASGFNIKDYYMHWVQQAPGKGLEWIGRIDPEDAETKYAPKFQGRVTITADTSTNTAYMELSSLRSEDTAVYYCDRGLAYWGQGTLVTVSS VL: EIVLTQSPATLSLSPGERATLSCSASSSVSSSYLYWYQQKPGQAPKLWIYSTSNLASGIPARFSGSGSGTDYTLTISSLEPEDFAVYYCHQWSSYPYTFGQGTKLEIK ?
[reply] 73100
